Record form. Attribute: Fold Improvement over Emax. Fill in for each entry.
- measured-target: CD137 (Homo sapiens, UniProt Q07011)
- Sequence (Q07011 24-255): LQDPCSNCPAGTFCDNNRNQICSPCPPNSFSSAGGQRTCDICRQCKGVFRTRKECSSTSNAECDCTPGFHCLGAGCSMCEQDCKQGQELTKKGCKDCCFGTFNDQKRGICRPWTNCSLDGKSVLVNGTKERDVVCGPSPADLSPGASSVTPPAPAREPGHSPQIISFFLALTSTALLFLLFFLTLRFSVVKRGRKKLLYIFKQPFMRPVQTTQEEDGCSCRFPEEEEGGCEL
- assay: CD137 reporter assay (Promega, Jurkat cells) in co-culture with EphA2-expressing tumor cells (A549, PC3, HT29)
- Format: cell-based
- Parameters: host or cells: Jurkat reporter cells
- run-parameters: co-culture with PC3; versus BCY9173
Starred links: 1 amine or outer side, 2 acyl side, 3 side chain; linkers in the order of their positions; H or OH if unused. Positions of bridges follow the written chain, without caps; N, C: chain ends. Non-standard residues stand in square brackets, D forms with d. Primed or numbered codes have the meaning given here. Chains are numbered I, II in the order given. No end group written: not given here. *: point of attachment. PYA″ = 4-pentynoic acid, acylating the D-Lys side chain, alkyne clicked to the linker azide; TATA = O=C(CC[*:1])N1CN(C(=O)CC[*:2])CN(C(=O)CC[*:3])C1; His(τ-Me) = Cn1cnc(C[C@H](N)C(=O)O)c1; Hyp = O=C(O)[C@@H]1C[C@@H](O)CN1; hArg = N=C(N)NCCCC[C@H](N)C(=O)O; tBuAla = CC(C)(C)C[C@H](N)C(=O)O; Nle = CCCC[C@H](N)C(=O)O; Pent4ynoyl = C#CCCC(=O)*
# output: numeric value plus its unit

BCY14050: EphA2:CD137 1:2; BCY13918 + 2x BCY8928; linker N-(acid-PEG3)-N-bis(PEG3-azide) (peptide 1 A[hArg]DC[Hyp]LVNPLCL[His(τ-Me)]P[dD]W[hArg]C; peptide 2 Ac-C[tBuAla]PE[dK](PYA″)PYCFADPY[Nle]CA; linker I:4-I:11-I:18, II:1-II:8-II:15 via TATA (inferred); not fully specified (N-terminus, bridges); also: 2x chain 2 (2x BCY8928) on linker) :: 1.91 fold

Moving on to another substance below.
Entry BCY12723: EphA2:CD137 1:2; BCY9594 + 2x BCY12143; linker N-(acid-PEG3)-N-bis(PEG3-azide) (peptide 1 A[hArg]DC[Hyp]LVNPLCLHP[dD]W[hArg]C; peptide 2 Ac-C[tBuAla]EE[dK](Pent4ynoyl)PYCFADPY[Nle]C; linker I:4-I:11-I:18, II:1-II:8-II:15 via TATA; not fully specified (bridges); also: chain 2 present twice on linker, EphA2:CD137 1:2) ; Fold Improvement over Emax = 1.8 fold

###

Please provide measured pEC50 for the entries that follow.
- measured-target: CD137 (Homo sapiens, UniProt Q07011)
- assay: CD137 reporter assay (Promega, Jurkat cells) in co-culture with EphA2-expressing tumor cells (A549, PC3, HT29)
- Format: cell-based
- Set-up: host or cells: Jurkat reporter cells
- run-parameters: EC50, CD137 reporter coculture assay with PC3 tumor cells
- Protocol: Culture medium, referred to as R1 media, is prepared by adding 1% FBS to RPMI-1640 (component of Promega kit CS196005). Serial dilutions of test articles in R1 are prepared in a sterile 96 well-plate. Add 25 μL per well of test articles or R1 (as a background control) to designated wells in a white cell culture plate. […] At the end of 6 h, add 75 μL/well Bio-Glo™ reagent (Promega) and incubate for 10 min before reading luminescence in a plate reader (Clariostar, BMG). […]
Starred links: 1 amine or outer side, 2 acyl side, 3 side chain; linkers in the order of their positions; H or OH if unused. Positions of bridges follow the written chain, without caps; N, C: chain ends. Non-standard residues stand in square brackets, D forms with d. Chains are numbered I, II in the order given. X1 = O=C(CCOCCOCCOCCN(CCOCCOCCOCCn1cc(CCC(=O)[*:2])nn1)CCOCCOCCOCCn1cc(CCC(=O)[*:3])nn1)[*:1]; X2 = O=C(CCSCCC(=O)[*:1])N1CN(C(=O)CC[*:2])CN(C(=O)CC[*:3])C1; TATA = O=C(CC[*:1])N1CN(C(=O)CC[*:2])CN(C(=O)CC[*:3])C1; Hyp = O=C(O)[C@@H]1C[C@@H](O)CN1; hArg = N=C(N)NCCCC[C@H](N)C(=O)O; tBuAla = CC(C)(C)C[C@H](N)C(=O)O; Aad = N[C@@H](CCCC(=O)O)C(=O)O; Nle = CCCC[C@H](N)C(=O)O; Mpa = O=C(O)CCS
One number for each entry, as −log10 of the molar value.

Worked cases, answers included:
I: A[hArg]DC[Hyp][Aad]VNPLCLHP[dD]W[hArg]C-NH2 / II: Ac-C[tBuAla]PE[dK]PYCFADPY[Nle]CA-NH2 / III: Ac-C[tBuAla]PE[dK]PYCFADPY[Nle]CA-NH2 (linker I:4-I:11-I:18, II:1-II:8-II:15, III:1-III:8-III:15 via TATA; linker I:N-II:5-III:5 via X1) [BCY13284] :: 9.60
I: A[hArg]DC[Hyp]LVNPLCLEP[dD]WTC-NH2 / II: Ac-C[tBuAla]PE[dK]PYCFADPY[Nle]CA-NH2 / III: Ac-C[tBuAla]PE[dK]PYCFADPY[Nle]CA-NH2 (linker I:4-I:11-I:18, II:1-II:8-II:15, III:1-III:8-III:15 via TATA; linker I:N-II:5-III:5 via X1) [BCY13044] :: 9.68

For reference, reported pEC50 for I: A[hArg]DC[Hyp]LVNPLCLHP[dD]W[hArg]C-NH2 / II: [Mpa][tBuAla]PE[dK]PYCFADPY[Nle]C-NH2 / III: [tBuAla]PE[dK]PYCFADPY[Nle]C-NH2 (linker I:4-I:11-I:18, II:1-II:8-II:15 via TATA; linker I:N-II:5-III:4 via X1; linker III:N-III:7-III:14 via X2) [BCY12730] stands at 9.60
